# targetEntity: Metallo-beta-lactamase type 2 (Bacteria, UniProt C7C422)
# Sequence (C7C422 whole entry): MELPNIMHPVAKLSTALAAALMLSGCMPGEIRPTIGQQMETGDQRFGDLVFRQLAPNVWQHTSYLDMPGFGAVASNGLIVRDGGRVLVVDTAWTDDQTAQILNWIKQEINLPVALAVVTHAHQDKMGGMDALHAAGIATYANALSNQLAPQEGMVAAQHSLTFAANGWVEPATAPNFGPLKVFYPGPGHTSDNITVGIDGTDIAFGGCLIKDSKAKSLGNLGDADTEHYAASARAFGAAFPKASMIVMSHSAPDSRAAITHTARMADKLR
# protocolText: Inhibition of NDM-1 (unknown origin) using nitrocefin as substrate incubated for 15 to 60 mins by absorption based analysis
pIC50: −log10 of the molar value.
Label rule, in plain words: pIC50 of 5 and up is label 1, under 5 is label 0.

[[record]]
compoundstring = "CC(C)(C)OC(=O)NCCCCCCn1[se]c2ccccc2c1=O"
targetentity = "Metallo-beta-lactamase type 2 (Bacteria, UniProt C7C422)"
group = "label 0"

[[record]]
compoundstring = "CC(C)(C)OC(=O)NCCn1[se]c2ccccc2c1=O"
targetentity = "Metallo-beta-lactamase type 2 (Bacteria, UniProt C7C422)"
group = "label 1"


Here is the next item to consider.
Threshold query (pIC50 >= 5) on COC(=O)c1cccc(-n2[se]c3ccccc3c2=O)c1
label 1
